Protocol text: Single-dose pharmacokinetic study of pitavastatin calcium tablets
Assay type: in vivo, human (healthy Chinese volunteers)
Condition description: male, human, plasma, oral, 4 mg
Value type: Vd (L)
Give bare numbers, in L.

Tell me the measured Vd of O=C(O)C[C@H](O)C[C@H](O)/C=C/c1c(C2CC2)nc2ccccc2c1-c1ccc(F)cc1 , please.
72.2

====

Protocol text: Single-dose pharmacokinetic study of pitavastatin calcium tablets
Type: in vivo, human (healthy Chinese volunteers)
Condition description: both, human, plasma, oral, 1 mg
Value type: half-life (h)
Answers are plain numbers, in h.

Tell me the measured half-life of O=C(O)C[C@H](O)C[C@H](O)/C=C/c1c(C2CC2)nc2ccccc2c1-c1ccc(F)cc1 , please.
11
